These measurements were taken from PubChem BioAssay.

# procedure.details: growth suppression of beta-catenin knockout HCT116, pilot screen, human colon tumor cells (AID 823);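 also: 0% = wells killed by 20 µM Hyamine and 100% = untreated DMSO cell wells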
# reported.conditions: CellTiter-Glo, 60 h, at 10 µM, stronger effect = lower value
Results filed as inconclusive are left out.
Recorded measurements of viability, one per entry
Give the number; % is assumed, so skip it.

Record excerpt, results attached:
1. CCc1ccc(C2CC(=O)N3CN(c4ccccc4)CSC3=C2C#N)cc1 (stereo not drawn): 101
2. Cc1ccccc1CSc1nnc(Cn2c(=O)sc3ccccc32)n1C: 95.6

Entry Cc1nn(C)c(C)c1N=Cc1c(O)ccc2ccccc12 , viability reported as 105

====

# procedure.details: reversal of MRP1-mediated doxorubicin resistance, pilot screen, H69AR cells, doxorubicin co-treatment (AID 601)
# reported.conditions: H69AR cells, CellTiter-Glo, 72 h; compound alone cytotoxicity; at 10 µM
Under this convention, T denotes viability strictly below 90% and F denotes viability at or above 90%.

Example results:
1) Cn1c(=O)c2ncn(CC(=O)NCCOc3ccc(C(C)(C)C)cc3)c2n(C)c1=O: T
2) CCN(CC)c1ccc(NC(=O)CN2CCN(CC(=O)Nc3ccccc3F)CC2)cc1: F
3) CCCCC(=O)O[C@]1(C(=O)CO)CC[C@H]2[C@@H]3CCC4=CC(=O)CC[C@]4(C)[C@H]3[C@@H](O)C[C@@]21C: F

Okay, now this compound:
Please determine if CCOC(=O)/N=C(/NC(=O)Nc1ccc(C(=O)OCC)cc1)OC is below 90% in terms of viability.
F
